Target Entity: human CYP11B1 (Homo sapiens)
Construct: expressed in transfected cells; host or cells: V79MZh cells
Sequence (P15538 25-503): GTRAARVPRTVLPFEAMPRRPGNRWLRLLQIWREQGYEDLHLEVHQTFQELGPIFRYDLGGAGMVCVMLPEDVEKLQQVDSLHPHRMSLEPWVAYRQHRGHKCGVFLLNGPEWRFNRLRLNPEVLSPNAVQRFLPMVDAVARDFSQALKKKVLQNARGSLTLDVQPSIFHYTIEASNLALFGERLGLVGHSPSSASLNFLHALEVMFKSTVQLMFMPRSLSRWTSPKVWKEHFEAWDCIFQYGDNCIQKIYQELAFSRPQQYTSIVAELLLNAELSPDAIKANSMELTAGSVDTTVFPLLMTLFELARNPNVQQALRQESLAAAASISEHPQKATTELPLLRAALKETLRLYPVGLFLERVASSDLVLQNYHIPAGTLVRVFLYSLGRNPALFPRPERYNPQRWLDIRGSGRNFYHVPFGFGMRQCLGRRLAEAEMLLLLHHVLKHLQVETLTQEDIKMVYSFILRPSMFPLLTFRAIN
Method Summary: Inhibition of CYP11B1 in V79 MZh cells expressing the enzyme
Assay type: cell-based
Test Settings: Hamster fibroblasts (V79 MZh) expressing human CYP11B1; substrate deoxycorticosterone, 100 nM; read-out: 11B1 IC50
pIC50: −log10 of the molar value.
Quantity Name: pIC50

• c1cncc(C2CCC3CCCCC3C2)c1 (centres unmarked) [Compound 1, 3-(Decahydro-naphthalen-2-yl)-pyridine] = 6.21
• c1cncc(C2CCCCCCCCC2)c1 = 6.06
• O=C1CC2C=C(c3cccnc3)CC2C1 (centres unmarked) = 6.55
• CC12CCC(c3cccnc3)=CC1=CCCC2=O (racemic) = 5.99
• OC1CC2CC(c3cccnc3)CC2C1 (centres unmarked) [Compound 6, 5-Pyridin-3-yl-octahydro-pentalen-2-ol] = 6.88
• COc1ccc2c(c1)CC(C)C(c1cccnc1)=C2 (centres unmarked) [III, reference compound] = 6.61
• c1cncc(C2CCCCCCCCCCC2)c1 = 5.75
• OC1CCCC(c2cccnc2)CCC1 (stereo not drawn) [Compound 10, (endo/exo)-5-Pyridin-3-yl-cyclooctanol] = 6.61
• C1=C(c2cccnc2)CCCCCC1 = 6.71
• O=C1CCC=C(c2cccnc2)CCC1 = 6.07
• C1=C(c2cccnc2)CCCCCCCC1 = 6.59
• c1cncc(C2CCCCCCC2)c1 = 5.98
• C1=C(c2cccnc2)C2CCC1C2 (centres unmarked) [Compound 18, 3-Bicyclo[2.2.1]hept-2-en-2-yl-pyridine] = 5.67
• C=C1CC2C=C(c3cccnc3)CC2C1 (centres unmarked) = 6.69
• c1cncc(C2CC3CCC2C3)c1 (centres unmarked) = 6.86

* * *

Target Entity: human CYP11B2 (Homo sapiens, UniProt P19099)
Construct: expressed in transfected cells; host or cells: V79MZh cells
Sequence (P19099 25-503): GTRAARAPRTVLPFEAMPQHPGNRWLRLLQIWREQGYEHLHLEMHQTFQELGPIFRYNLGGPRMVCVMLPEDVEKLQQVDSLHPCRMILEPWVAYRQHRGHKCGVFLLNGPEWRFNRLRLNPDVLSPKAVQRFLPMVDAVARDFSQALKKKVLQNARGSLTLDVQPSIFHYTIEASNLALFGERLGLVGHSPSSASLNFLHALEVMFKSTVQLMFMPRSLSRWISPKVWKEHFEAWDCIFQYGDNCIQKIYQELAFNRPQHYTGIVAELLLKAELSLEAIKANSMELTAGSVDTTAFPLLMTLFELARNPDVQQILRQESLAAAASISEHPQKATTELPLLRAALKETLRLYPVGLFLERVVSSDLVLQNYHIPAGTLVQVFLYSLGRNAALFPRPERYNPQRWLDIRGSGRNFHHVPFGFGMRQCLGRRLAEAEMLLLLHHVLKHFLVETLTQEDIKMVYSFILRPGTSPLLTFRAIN
Method Summary: Inhibition of CYP11B2 in V79 MZh cells expressing the enzyme
Format: cell-based
Test Settings: Hamster fibroblasts (V79 MZh) expressing human CYP11B2; substrate deoxycorticosterone, 100 nM; read-out: 11B2 IC50
Quantity Name: IC50 (nM)

• O=C1CCCC(c2cccnc2)CCC1 = 443
• C=C1CC2C=C(c3cccnc3)CC2C1 (stereo not shown) = 6
• CN1C2C=C(c3cccnc3)CC1CC2 (stereo not shown) = 2440
• COc1ccc2c(c1)CC(C)C(c1cccnc1)=C2 (stereo not shown) [III, reference compound] = 3
• C1=C(c2cccnc2)CCCCCC1 = 81
• c1cncc(C2CCCCCCCCCCC2)c1 = 636
• c1cncc(C2CCCCCCC2)c1 = 21
• OC1CC2C=C(c3cccnc3)CC2C1 (stereo not shown) = 225
• OC1CCC=C(c2cccnc2)CCC1 (stereo not shown) = 141
• O=C1CC2C=C(c3cccnc3)CC2C1 (stereo not shown) = 34
